# Test Target: Cannabinoid receptor 1 (Homo sapiens)
# Type: functional, cell-based, CHO-K1
# Description: Antagonist activity at human recombinant CB1 receptor expressed in CHO-K1 cells assessed as inhibition of CP-55940-stimulated GTPgammaS binding
Property: IC50; scope: individual molecules

query: What does the record list as IC50 for `N#CCc1c(C(=O)N2Cc3ccc(F)cc3C2)nn(-c2ccccc2Cl)c1-c1ccc(Cl)cc1` ?
result: 5.7 nM

query: What does the record list as IC50 for `N#CCc1c(C(=O)N[C@@H]2C[C@H]3CC[C@@H]2C3)nn(-c2ccccc2Cl)c1-c1ccc(Cl)cc1` ?
result: 2.2 nM

query: What does the record list as IC50 for `N#CCc1c(C(=O)NCCN2CCCCC2)nn(-c2ccccc2Cl)c1-c1ccc(Cl)cc1` ?
result: 1110 nM

query: What does the record list as IC50 for `N#CCc1c(C(=O)NCc2ccc(F)c(Br)c2)nn(-c2ccccc2Cl)c1-c1ccc(Cl)cc1` ?
result: 0.7 nM

query: What does the record list as IC50 for `CC(=O)C1CCN(C(=O)c2nn(-c3ccccc3Cl)c(-c3ccc(Cl)cc3)c2CC#N)CC1` ?
result: 199 nM

----------
# Test Protocol: Octanol-water partition coefficient, log D of the compound
# Type: physicochemical
Observation Type: logD

Completed entries (count: 6):
N#CCc1c(C(=O)NCc2ccc(Cl)cc2Cl)nn(-c2ccccc2Cl)c1-c1ccc(Cl)cc1 = 4.6
N#CCc1c(C(=O)Nc2cccnc2Cl)nn(-c2ccccc2Cl)c1-c1ccc(Cl)cc1 = 4.4
N#CCc1c(C(=O)NCc2ccc(C#N)cc2)nn(-c2ccccc2Cl)c1-c1ccc(Cl)cc1 = 3.8
N#CCc1c(C(=O)Nc2ccc(F)cc2)nn(-c2ccccc2Cl)c1-c1ccc(Cl)cc1 = 4.2
N#CCc1c(C(=O)NCc2ccc(Cl)cc2)nn(-c2ccccc2Cl)c1-c1ccc(Cl)cc1 = 4.4
N#CCc1c(C(=O)NCc2cccc(Cl)c2)nn(-c2ccccc2Cl)c1-c1ccc(Cl)cc1 = 4.4

query: What does the record list as logD for `N#CCc1c(C(=O)NCc2ccc(Br)cc2F)nn(-c2ccccc2Cl)c1-c1ccc(Cl)cc1` ?
result: 4.5

query: What does the record list as logD for `N#CCc1c(C(=O)NCc2ccc(F)cc2)nn(-c2ccccc2Cl)c1-c1ccc(Cl)cc1` ?
result: 4.1

query: What does the record list as logD for `N#CCc1ccc(NC(=O)c2nn(-c3ccccc3Cl)c(-c3ccc(Cl)cc3)c2CC#N)cc1` ?
result: 3.8

query: What does the record list as logD for `N#CCc1c(C(=O)Nc2cnc3ccccc3c2)nn(-c2ccccc2Cl)c1-c1ccc(Cl)cc1` ?
result: 4

query: What does the record list as logD for `N#CCc1c(C(=O)NCCN2CCCCC2)nn(-c2ccccc2Cl)c1-c1ccc(Cl)cc1` ?
result: 2.9

query: What does the record list as logD for `N#CCc1c(C(=O)NN2CCCCC2)nn(-c2ccccc2Cl)c1-c1ccc(Cl)cc1` ?
result: 3.6

----------
# Test Target: Cannabinoid receptor 1 (Homo sapiens, UniProt P21554)
# Sequence (P21554 whole entry): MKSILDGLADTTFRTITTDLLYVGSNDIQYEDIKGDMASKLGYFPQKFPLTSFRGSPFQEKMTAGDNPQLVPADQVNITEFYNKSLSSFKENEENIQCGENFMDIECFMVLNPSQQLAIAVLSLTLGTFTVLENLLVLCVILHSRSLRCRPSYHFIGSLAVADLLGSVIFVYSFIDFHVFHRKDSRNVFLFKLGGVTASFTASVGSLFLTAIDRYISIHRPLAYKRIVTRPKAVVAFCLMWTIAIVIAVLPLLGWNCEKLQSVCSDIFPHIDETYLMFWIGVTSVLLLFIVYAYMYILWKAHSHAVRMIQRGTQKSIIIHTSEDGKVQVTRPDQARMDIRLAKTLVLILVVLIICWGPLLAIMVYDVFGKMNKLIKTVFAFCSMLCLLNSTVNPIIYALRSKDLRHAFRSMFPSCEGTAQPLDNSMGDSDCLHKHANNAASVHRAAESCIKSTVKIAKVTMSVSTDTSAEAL
# Assay type: functional, cell-based, CHO-K1
pIC50: −log10 of the molar value.
Response key: Criterion met means pIC50 >= 8; Criterion not met means pIC50 < 8.

Below, 5 molecules whose answers are already recorded.
N#CCc1c(C(=O)Nc2cccnc2)nn(-c2ccccc2Cl)c1-c1ccc(Cl)cc1 = Criterion not met
COC(=O)c1ccccc1C1CCN(C(=O)c2nn(-c3ccccc3Cl)c(-c3ccc(Cl)cc3)c2CC#N)CC1 = Criterion met
CS(=O)(=O)N1CCC(NC(=O)c2nn(-c3ccccc3Cl)c(-c3ccc(Cl)cc3)c2CC#N)CC1 = Criterion not met
CC(C)C(NC(=O)c1nn(-c2ccccc2Cl)c(-c2ccc(Cl)cc2)c1CC#N)C(=O)O (stereo not drawn) = Criterion not met
N#CCc1c(C(=O)NCc2ccc(Br)cc2)nn(-c2ccccc2Cl)c1-c1ccc(Cl)cc1 = Criterion met

query: Reported pIC50 reaches at least 8 for `N#CCc1c(C(=O)NC2CCCCC2)nn(-c2ccccc2Cl)c1-c1ccc(Cl)cc1` ?
result: Criterion met

query: Reported pIC50 reaches at least 8 for `N#CCc1c(C(=O)N2CC[C@@H](OCc3ccc(F)cc3)C2)nn(-c2ccccc2Cl)c1-c1ccc(Cl)cc1` ?
result: Criterion not met

query: Reported pIC50 reaches at least 8 for `N#CCc1c(C(=O)NCc2ccccc2F)nn(-c2ccccc2Cl)c1-c1ccc(Cl)cc1` ?
result: Criterion met

query: Reported pIC50 reaches at least 8 for `N#CCc1c(C(=O)N2CCC(c3ccccc3C(=O)O)CC2)nn(-c2ccccc2Cl)c1-c1ccc(Cl)cc1` ?
result: Criterion not met

query: Reported pIC50 reaches at least 8 for `N#CCc1c(C(=O)N2Cc3ccc(Br)cc3C2)nn(-c2ccccc2Cl)c1-c1ccc(Cl)cc1` ?
result: Criterion met

query: Reported pIC50 reaches at least 8 for `N#CCc1ccc(NC(=O)c2nn(-c3ccccc3Cl)c(-c3ccc(Cl)cc3)c2CC#N)cc1` ?
result: Criterion not met

query: Reported pIC50 reaches at least 8 for `N#CCc1c(C(=O)NCc2ccc(Cl)cc2)nn(-c2ccccc2Cl)c1-c1ccc(Cl)cc1` ?
result: Criterion met

query: Reported pIC50 reaches at least 8 for `N#CCc1c(C(=O)NCc2cccc(Cl)c2)nn(-c2ccccc2Cl)c1-c1ccc(Cl)cc1` ?
result: Criterion met

query: Reported pIC50 reaches at least 8 for N#CCc1c(C(=O)N2CCCCC2c2ccc(F)cc2)nn(-c2ccccc2Cl)c1-c1ccc(Cl)cc1 (stereo not drawn) ?
result: Criterion not met

query: Reported pIC50 reaches at least 8 for `CCC(CC)NC(=O)c1nn(-c2ccccc2Cl)c(-c2ccc(Cl)cc2)c1CC#N` ?
result: Criterion met

query: Reported pIC50 reaches at least 8 for `N#CCc1c(C(=O)NN2CCOCC2)nn(-c2ccccc2Cl)c1-c1ccc(Cl)cc1` ?
result: Criterion not met

----------
# Test Target: Cannabinoid receptor 1 (Homo sapiens, UniProt P21554)
# Type: functional, cell-based, CHO-K1
Please respond with 1.0 when measured IC50 is strictly beneath 6 nM, and with 0.0 in all other cases.

Below, 4 compounds whose answers are already recorded.
N#CCc1c(C(=O)NC2CCCCCC2)nn(-c2ccccc2Cl)c1-c1ccc(Cl)cc1 = 1.0
Cc1cc(CNC(=O)c2nn(-c3ccccc3Cl)c(-c3ccc(Cl)cc3)c2CC#N)no1 = 0.0
CS(=O)(=O)C1CCN(C(=O)c2nn(-c3ccccc3Cl)c(-c3ccc(Cl)cc3)c2CC#N)CC1 = 0.0
N#CCc1c(C(=O)Nc2cccnc2Cl)nn(-c2ccccc2Cl)c1-c1ccc(Cl)cc1 = 0.0

Note: attention shifts to another entry.
query: Check if IC50 falls below 6 nM for `N#CCc1c(C(=O)N2CCc3ccccc3C2)nn(-c2ccccc2Cl)c1-c1ccc(Cl)cc1` .
result: 1.0

----------
Property: pIC50; scope: individual compounds
# Test Target: Cannabinoid receptor 1 (Homo sapiens)
# Assay type: functional, cell-based, CHO-K1
# pIC50 is unitless: minus log10 of the molar concentration; print number only

N#CCc1c(C(=O)N2CCC(c3ccc(F)cc3)C2)nn(-c2ccccc2Cl)c1-c1ccc(Cl)cc1 (centres undefined) = 8.04
N#CCc1c(C(=O)N2CCc3ccc(C(F)(F)F)cc3C2)nn(-c2ccccc2Cl)c1-c1ccc(Cl)cc1 = 8.68

query: What does the record list as pIC50 for `N#CCc1c(C(=O)NCc2ccc(C#N)cc2)nn(-c2ccccc2Cl)c1-c1ccc(Cl)cc1` ?
result: 8.38

----------
# Test Target: Cannabinoid receptor 1 (Homo sapiens)
# Type: functional, cell-based, CHO-K1
pIC50: −log10 of the molar value.
Response key: 1.0 means pIC50 >= 8; 0.0 means pIC50 < 8.

Below, 5 molecules whose answers are already recorded.
CN(Cc1ccc(F)cc1)C(=O)c1nn(-c2ccccc2Cl)c(-c2ccc(Cl)cc2)c1CC#N = 1.0
N#CCc1c(C(=O)NCc2ccc(F)cc2)nn(-c2ccccc2Cl)c1-c1ccc(Cl)cc1 = 1.0
N#CCc1c(C(=O)N[C@H]2c3ccccc3C[C@H]2O)nn(-c2ccccc2Cl)c1-c1ccc(Cl)cc1 (single isomer, unassigned) = 1.0
N#CCc1c(C(=O)N2CCN(c3ncccn3)CC2)nn(-c2ccccc2Cl)c1-c1ccc(Cl)cc1 = 1.0
N#CCc1c(C(=O)NCc2ccc(Cl)cc2Cl)nn(-c2ccccc2Cl)c1-c1ccc(Cl)cc1 = 1.0

Note: attention shifts to another entry.
query: Reported pIC50 reaches at least 8 for N#CCc1c(C(=O)NC(Cc2ccccc2)C(=O)O)nn(-c2ccccc2Cl)c1-c1ccc(Cl)cc1 (stereo not drawn) ?
result: 0.0

----------
# Test Target: Cannabinoid receptor 1 (Homo sapiens, UniProt P21554)
# Assay type: functional, cell-based, CHO-K1
Property: pIC50; scope: individual molecules
# pIC50 is unitless: minus log10 of the molar concentration; print number only

query: What does the record list as pIC50 for N#CCc1c(C(=O)N[C@@H]2c3ccccc3C[C@@H]2O)nn(-c2ccccc2Cl)c1-c1ccc(Cl)cc1 (single isomer, unassigned) ?
result: 8.11

query: What does the record list as pIC50 for `N#CCc1c(C(=O)Nc2ccc(F)cc2)nn(-c2ccccc2Cl)c1-c1ccc(Cl)cc1` ?
result: 7.96

query: What does the record list as pIC50 for `C[C@H]1CC[C@H](NC(=O)c2nn(-c3ccccc3Cl)c(-c3ccc(Cl)cc3)c2CC#N)CC1` ?
result: 8.80

query: What does the record list as pIC50 for N#CCc1c(C(=O)N2CCCC2c2ccc(F)cc2)nn(-c2ccccc2Cl)c1-c1ccc(Cl)cc1 (stereo not drawn) ?
result: 7.57

query: What does the record list as pIC50 for N#CCc1c(C(=O)NC2CCc3ccccc32)nn(-c2ccccc2Cl)c1-c1ccc(Cl)cc1 (stereo not drawn) ?
result: 9.39

query: What does the record list as pIC50 for `N#CCc1c(C(=O)Nc2cnc3ccccc3c2)nn(-c2ccccc2Cl)c1-c1ccc(Cl)cc1` ?
result: 7.72

query: What does the record list as pIC50 for COC(=O)C(Cc1ccccc1)NC(=O)c1nn(-c2ccccc2Cl)c(-c2ccc(Cl)cc2)c1CC#N (stereo not drawn) ?
result: 8.92

query: What does the record list as pIC50 for `N#CCc1c(C(=O)N2CCC(c3ccc(F)cc3)CC2)nn(-c2ccccc2Cl)c1-c1ccc(Cl)cc1` ?
result: 9.00

Data provenance: ChEMBL document CHEMBL1153177
